procedure text: yeast display, Sf9 membrane polyspecificity reagent, FACS + sequencing; frameworks hold sequencing errors
readout type: polyreactivity (PSR sort gate)

| sequence record | polyreactivity (PSR sort gate) |
| --- | --- |
| QVQLVESGGGLVQAGGSLRLSCAASGSTFSLYAMGWSRQAPGKERELVAAISRSGGRTYYADSVKGRFTISRDNAKNTVYLQMNSLKPEDTAVYYCAADSTSGYYWGQGTQVTVSS | high polyreactivity |
| QVQLVESGGGLVQAGGSLRLSCAASGRIFGQYAMGWYRQAPGKERELVASISRRGGSTNYADSVKGRFTISRDNAKNTVYLQMNSLKPEDSAVYYCAARTWRRQYYRTRYEYWGQGTQVNVSS | high polyreactivity |
| QVQLVESGGGLVQAGGSLRLSCAASGSTFFYNAMGWYRQAPGKERELVAAMSLSGGSITYYADSVKGRFTISRDNANNTVYLQMNSLKPEDTAVYYCAADSQATSYGLDYWGQGTQVTVSS | low polyreactivity |
| QVQLVESGGGLVQAGGSLRLSCAASGRIFQGYAMGWYRPAPGKERELGASIRTGGTTNYADSVKGRFTISRDNAKNTVYLQMNSLTPEDTAVYYCAKRYYGWYGNFDYWGQGTQVTVSA | high polyreactivity |

Please fill in: polyreactivity (PSR sort gate) reported for QVQLVESGGGLVQAGGSLRLSCASSGSIFWQNTMGWYRQAPGKERELVATITSAGSTYYADSVKGRFTISRDNAKNTVYLQMNSLKPEDTAVYYCAKGHQPGHVFHPEYGYDYWGQGTQVTVSS = low polyreactivity
